EXPERIMENTAL DETAILS: Cytotoxicity against human HepDES19 cells assessed as reduction in cell viability incubated for 6 days by MTT assay
Assay type: toxicity, cell-based
CONDITION PARAMETERS: time 6 day
READOUT LABEL: CC50 at 144 h (µM)
Numbers only, in µM.

O=C(Nc1ccc(F)c(C(F)F)c1)N1c2ccccc2NCC1CN1CCC(F)(F)CC1 (centres undefined) : 29.3

**Query** Quick one: give measured CC50 at 144 h for O=C(Nc1ccc(F)c(Cl)c1)N1CCN(C(=O)Nc2cc(Cl)c(F)cc2F)c2ccccc21
**Result** 16.8

###

Field: CC50 at 48 h. Provide a value for each of the molecules that follow.
EXPERIMENTAL DETAILS: Cytotoxicity against mouse AML12 cells assessed as reduction in cell viability incubated for 48 hrs by MTT assay
Assay type: toxicity, cell-based
CONDITION PARAMETERS: AML12 cells

O=C(Nc1ccc(F)c(Cl)c1)N1CC(CN2CCC(F)(F)CC2)Nc2ccccc21 (stereo unspecified) : > 100 µM
O=C(Nc1cccc(Cl)c1)N1c2ccccc2NCC1CN1CCC(F)(F)CC1 (stereo unspecified) : > 50 µM
O=C(Nc1ccc(F)c(Cl)c1)N1CCN(CCCCF)c2ccccc21 : > 50 µM
CC1CN(C(=O)Nc2ccc(F)c(Cl)c2)c2ccccc2N1 (stereo unspecified) : > 50 µM
O=C(Nc1ccc(F)c(Cl)c1)N1CCc2ccccc21 : > 100 µM

List CC50 at 48 h for every entry below, keeping the order given.
1. O=C1CN(C(=O)Nc2ccc(F)c(Cl)c2)c2ccccc2N1
2. NC1CCN(C(=O)Nc2ccc(F)c(Cl)c2)c2ccccc21 (racemic)
3. O=C(Nc1cc(F)c(F)c(F)c1)N1CCNc2ccccc21
4. O=C(Nc1ccc(F)c(F)c1)N1c2ccccc2NCC1CN1CCC(F)(F)CC1 (stereo unspecified)
5. O=C(Nc1ccc(F)c(Cl)c1)N1CC(c2ccccc2)Nc2ccccc21 (stereo unspecified)

**Result**
1: > 50 µM; 2: > 100 µM; 3: > 100 µM; 4: > 50 µM; 5: > 50 µM

###

System: AML12
EXPERIMENTAL DETAILS: Cytotoxicity against mouse AML12 cells assessed as reduction in cell viability incubated for 48 hrs by MTT assay
Assay type: toxicity, cell-based
CONDITION PARAMETERS: aml12, 48 h
READOUT LABEL: CC50

**Query** Please give the documented CC50 of O=C(Nc1ccc(F)c(Cl)c1)N1CCNc2ccccc21
**Result** > 100 µM

###

EXPERIMENTAL DETAILS: Cytotoxicity against mouse AML12 cells assessed as reduction in cell viability incubated for 48 hrs by MTT assay
Type: toxicity, cell-based
CONDITION PARAMETERS: AML12 cells
READOUT LABEL: CC50 at 48 h

O=C(Nc1cccc(Cl)c1)N1CCN(C(=O)Nc2ccc(F)c(Cl)c2)c2ccccc21 : > 100 µM
Cc1cc(NC(=O)N2CCNc3ccccc32)ccc1F : > 20 µM
O=C(NCc1cccc(Cl)c1)N1CCNc2ccccc21 : > 100 µM

Okay, here is my list. What is CC50 at 48 h for each of these?
1. O=C(Nc1ccc(F)c(Cl)c1)N1c2ccccc2NCC1CN1CCC(F)(F)C1 (centres undefined)
2. O=C(Nc1ccc(F)c(Cl)c1)N1CCN(C(=O)Nc2ccc(F)c(Cl)c2)c2ccccc21
3. O=C(Nc1ccc(C(O)(C(F)(F)F)C(F)(F)F)cc1)N1CCNc2ccccc21
4. O=C(Nc1ccc(F)c(C(F)F)c1)N1c2ccccc2NCC1CN1CCC(F)(F)CC1 (centres undefined)
5. CC(C)C1CNc2ccccc2N1C(=O)Nc1ccc(F)c(Cl)c1 (centres undefined)
6. O=C(Nc1cc(F)c(F)c(F)c1)N1c2ccccc2NCC1CN1CCC(F)(F)CC1 (centres undefined)

**Result**
> 100 µM
> 12.5 µM
> 20 µM
> 50 µM
> 100 µM
> 50 µM

###

Please provide measured EC50 for the entries that follow.
System: Hepatitis B virus
EXPERIMENTAL DETAILS: Antiviral activity against HBV infected in AML12HBV10 cells assessed as reduction viral replication incubated for 48 hrs
Assay type: functional, organism-based
CONDITION PARAMETERS: AML12HBV10, 48 h
One number for each entry, in µM.

CC1CNc2ccccc2N1C(=O)Nc1ccc(F)c(Cl)c1 (stereo not given) : 3.02

Now for the compound whose EC50 we want.
**Query** Dear colleague, please send me the reported EC50 for O=C(Nc1ccc(F)c(Cl)c1)N1CC(CN2CCC(F)(F)C2)N(C(=O)Nc2ccc(F)c(Cl)c2)c2ccccc21 (stereo not given) when you can.
**Result** 1.14

###

Please respond with reported EC50 for every item in the list.
Tested on: Hepatitis B virus
EXPERIMENTAL DETAILS: Antiviral activity against HBV infected in AML12HBV10 cells assessed as reduction viral replication incubated for 48 hrs
Format: functional, organism-based
CONDITION PARAMETERS: AML12HBV10, 48 h
Give bare numbers, in nM.

Some entries whose results are on file:
O=C(Nc1ccc(F)c(C(F)(F)F)c1)N1CCNc2ccccc21 : 320
O=C(Nc1ccc(F)c(Cl)c1)N1CCNc2ccccc21 : 510
O=C(Nc1ccc(F)c(Cl)c1)N1c2ccccc2NCC1CN1CCC(F)(F)CC1 (stereo not given) : 280
O=C(Nc1ccc(F)c(Cl)c1)N1CC(CN2CCOCC2)N(C(=O)Nc2ccc(F)c(Cl)c2)c2ccccc21 (stereo not given) : 2030
O=C(Nc1ccccc1)N1CCN(C(=O)Nc2ccc(F)c(Cl)c2)c2ccccc21 : 7340

Could you tell me EC50 for each of these molecules? They are listed below.
1. O=C(Nc1cccc(Cl)c1)N1c2ccccc2NCC1CN1CCC(F)(F)CC1 (stereo not given)
2. O=C(Nc1cccc(Cl)c1)N1CCNc2ccccc21
3. O=C(Nc1ccc(F)c(Cl)c1)N1CC(CN2CCC(F)(F)CC2)N(C(=O)Nc2ccc(F)c(Cl)c2)c2ccccc21 (stereo not given)
4. O=C(Nc1ccc(F)c(Cl)c1)N1CC(CN2CCC(F)(F)C2)Nc2ccccc21 (stereo not given)
5. O=C(Nc1cc(F)c(F)c(F)c1)N1CCNc2ccccc21
6. O=C(Nc1cccnc1)N1CCN(C(=O)Nc2ccc(F)c(Cl)c2)c2ccccc21

**Result**
1: 350; 2: 1130; 3: 1610; 4: 5090; 5: 630; 6: 5760

I would be grateful if you could provide EC50 for each of the following entries.
1. O=C(Nc1ccc(F)c(C(F)F)c1)N1CCNc2ccccc21
2. O=C(Nc1cccc(Cl)c1)N1CCN(C(=O)Nc2ccc(F)c(Cl)c2)c2ccccc21
3. Cc1cc(NC(=O)N2c3ccccc3NCC2CN2CCC(F)(F)CC2)ccc1F (stereo not given)
4. N#Cc1cc(NC(=O)N2CCNc3ccccc32)ccc1F
5. O=C(Nc1cc(Cl)ccc1F)N1CCNc2ccccc21
6. [N-]=[N+]=Nc1ccc(NC(=O)N2CCNc3ccccc32)cc1Cl
7. CC(C)C1CNc2ccccc2N1C(=O)Nc1ccc(F)c(Cl)c1 (stereo not given)

**Result**
1. 190
2. 650
3. 270
4. 520
5. 770
6. 1660
7. 4500

// for each molecule in input: emit EC50
1. O=C(Nc1ccc(F)c(Cl)c1)N1CCNc2cc(F)c(F)cc21
2. O=C(Nc1ccc(F)c(Cl)c1)N1c2ccccc2NCC1c1ccccc1 (stereo not given)
3. O=C(Nc1ccc(F)c(C(F)(F)F)c1)N1c2ccccc2NCC1CN1CCC(F)(F)CC1 (stereo not given)
4. O=C(Nc1ccc(F)c(Cl)c1)N1CCN(C(=O)Nc2ccc(F)c(Cl)c2)c2ccccc21

**Result**
1780
780
340
1010

###

Please respond with reported log10 EC50 for every item in the list.
Tested on: Hepatitis B virus
EXPERIMENTAL DETAILS: Antiviral activity against HBV infected in AML12HBV10 cells assessed as reduction viral replication incubated for 48 hrs
Format: functional, organism-based
CONDITION PARAMETERS: AML12HBV10, 48 h
Scale: log10; quantity: EC50; unit before log: nM

O=C(Nc1cc(F)c(F)c(F)c1)N1CCN(C(=O)Nc2ccc(F)c(Cl)c2)c2ccccc21 : 2.51

Give log10 EC50 for each of the items listed below.
1. O=C(Nc1ccc(F)c(Cl)c1)N1c2ccccc2NCC1CN1CCC(F)(F)C1 (stereo unspecified)
2. O=C(Nc1cc(F)c(F)c(F)c1)N1c2ccccc2NCC1CN1CCC(F)(F)CC1 (stereo unspecified)
3. Cc1cc(NC(=O)N2CCNc3ccccc32)ccc1F
4. N#Cc1cc(NC(=O)N2c3ccccc3NCC2CN2CCC(F)(F)CC2)ccc1F (stereo unspecified)

**Result**
[3.23, 2.46, 2.38, 1.95]

Provide the reported log10 EC50 of each entry below, same order.
1. O=C(Nc1ccc(F)c(C(F)F)c1)N1c2ccccc2NCC1CN1CCC(F)(F)CC1 (stereo unspecified)
2. O=C(Nc1ccc(F)c(Cl)c1)N1CCCc2ccccc21
3. O=C(Nc1ccc(F)c(Cl)c1)N1CC(c2ccccc2)Nc2ccccc21 (stereo unspecified)

**Result**
1: 2.00; 2: 3.19; 3: 4.00
